A set of molecules tested on PKMYT1 (Homo sapiens (Human)), with measured IC50:
Dear colleague, please return just the value in nM, with no unit written.

Solved entries:
molecule	IC50 / nM
Cc1nc(OC(F)F)c2c(C(N)=O)c(N)n(-c3c(C)ccc(O)c3C)c2n1	3.4
Cc1nc(N2CCC2)c2c(C(N)=O)c(N)n(-c3c(C)ccc(O)c3C)c2n1 (atropisomer, axis not shown)	13
Cc1ccc(O)c(C)c1-n1c(N)c(C(N)=O)c2c(=O)n(C)c(C)cc21	11.9
Cc1ccc(O)c(C)c1-n1c(N)c(C(N)=O)c2cnc(C(F)(F)F)nc21	8.9

Result for `Cc1nc(OCF)c2c(C(N)=O)c(N)n(-c3c(C)ccc(O)c3C)c2n1` , tested on PKMYT1 (Homo sapiens (Human)), IC50: 2.3

Value (IC50, PKMYT1 (Homo sapiens (Human))) for record COc1nc(C)nc2c1c(C(N)=O)c(N)n2-c1c(C)ccc(O)c1C (atropisomer, axis not shown) = 1.5

The observed IC50 for Cc1nc(Oc2cnn(C)c2)c2c(C(N)=O)c(N)n(-c3c(C)ccc(O)c3C)c2n1 (atropisomer, axis not shown) when tested with PKMYT1 (Homo sapiens (Human)) stands at 2.8

Item Cc1ccc(O)c(C)c1-n1c(N)c(C(N)=O)c2c(=O)n(CF)c(C)nc21 [Compound 12-P2] was tested on PKMYT1 (Homo sapiens (Human)); the reported IC50 is 1.5

The reported PKMYT1 (Homo sapiens (Human)) IC50 of `Cc1ncc2c(C(N)=O)c(N)n(-c3c(C)ccc(O)c3Cl)c2n1` is 4.1

Data origin, for the record: patent US20250197405A1
